# Experiment Summary: Toxicity liver stage against HepG2, at 10uM
# Assay type: cell-based
# Design: test concentration 10 uM, cell line HepG2-A16-CD81EGFP
# Test Conditions: human, HepG2-A16-CD81EGFP cells; read-out: INHIBITION

Molecule: CC(Cn1ccnc1)NCc1ccc2nonc2c1 (stereo unspecified)
Unit Name: %
cytotoxicity at 10 µM: 2.57
--
Molecule: Cc1ncsc1C(=O)N1CCCN(Cc2cscn2)CC1
Unit Name: %
cytotoxicity at 10 µM: -9.67
--
Molecule: CCOCCN1CCN(c2ccc(C#N)cn2)CC1CC (stereo unspecified)
Unit Name: %
cytotoxicity at 10 µM: 1.02
--
Molecule: Cc1cccc(C2CCN(S(=O)(=O)c3cn(C)cn3)CC2)n1
Unit Name: %
cytotoxicity at 10 µM: -20.2
--
Molecule: Cc1cc(C)n(CC2CCCCN2CCC(=O)Nc2cc(C)on2)n1 (stereo unspecified)
Unit Name: %
cytotoxicity at 10 µM: -1.03
--
Molecule: O=C1CO[C@H]2CN(Cc3ccc4c(c3)OCO4)C[C@H]2N1
Unit Name: %
cytotoxicity at 10 µM: 0.801
--
Molecule: Cc1ccc(CN2CCCn3cnc(COCC4CC4)c3C2)o1
Unit Name: %
cytotoxicity at 10 µM: 8.82
--
Molecule: Cn1cnnc1CN1CCC2(CCCN(C3CCCCC3)C2=O)C1 (stereo unspecified)
Unit Name: %
cytotoxicity at 10 µM: -117
--
Molecule: Cc1nc(C)c(CC(=O)N2C[C@@H]3CC[C@H]2CN(c2cnccn2)C3)s1
Unit Name: %
cytotoxicity at 10 µM: 10.1
--
Molecule: Cc1cccc(N2CCc3ncc(CNc4ccccn4)n3CC2)n1
Unit Name: %
cytotoxicity at 10 µM: 2.19
--
Molecule: CO[C@@H]1CC[C@H]2[C@H]1OCCN2C(=O)COc1ccc(C)cc1
Unit Name: %
cytotoxicity at 10 µM: -99
--
Molecule: CCCc1n[nH]c(C2CN(C(=O)c3ccnc(C4CC4)n3)CCO2)n1 (stereo unspecified)
Unit Name: %
cytotoxicity at 10 µM: -7.49
--
Molecule: O=C(COc1coc(CN2CCCC2)cc1=O)Nc1ccc(Cl)c(Cl)c1
Unit Name: %
cytotoxicity at 10 µM: 0.0723
--
Molecule: O=C(COCc1nc(-c2ccncc2)no1)N1CCOCC1
Unit Name: %
cytotoxicity at 10 µM: -7.08
--
Molecule: O=C(NCC1COCCO1)c1csc(Cc2ccccc2)n1 (stereo unspecified)
Unit Name: %
cytotoxicity at 10 µM: -0.857
--
Molecule: O=C1[C@H]2CN(S(=O)(=O)C3CC3)C[C@H]2CN1CC1CC1
Unit Name: %
cytotoxicity at 10 µM: 1.8
--
Molecule: CCCC(C)C(=O)Nc1ccc(OC)nc1N1CCN(C(C)=O)CC1 (stereo unspecified)
Unit Name: %
cytotoxicity at 10 µM: -5.46
--
Molecule: Cc1cccc(C(=O)NCCNS(=O)(=O)c2cccs2)c1C
Unit Name: %
cytotoxicity at 10 µM: -0.642
--
Molecule: CC(C)C(=O)N1CC[C@H]2N(C)CC[C@@]2(C(=O)N2CCOCC2)CC1
Unit Name: %
cytotoxicity at 10 µM: -0.449
--
Molecule: CCc1ccc(NS(=O)(=O)C=c2[nH]c(=O)n3cccc3c2=O)cc1
Unit Name: %
cytotoxicity at 10 µM: 8.45
--
Molecule: c1ccc(NC[C@@H]2CCC[C@@H]3CN(Cc4cc[nH]n4)C[C@@H]32)nc1
Unit Name: %
cytotoxicity at 10 µM: -111
--
Molecule: O=C(NCc1cccs1)[C@@H]1CC[C@@H]2[C@@H](CCN2CC2CCC2)O1
Unit Name: %
cytotoxicity at 10 µM: -10.2
--
Molecule: COCC(=O)N1C[C@@H](c2cccc(F)c2)[C@H]2[C@H]1CCCCCN2C(C)=O
Unit Name: %
cytotoxicity at 10 µM: 4.22
--
Molecule: CCNC(=O)CN1CCOC(c2ccccc2C(F)(F)F)C1 (stereo unspecified)
Unit Name: %
cytotoxicity at 10 µM: 3.09
--
Molecule: CCOc1nnc(CN(C)C2CCCN(c3cccnn3)C2)s1 (stereo unspecified)
Unit Name: %
cytotoxicity at 10 µM: -17.3
--
Molecule: Cn1cc(C2CCCN2C(=O)CCCOc2ccc(F)cc2F)cn1 (stereo unspecified)
Unit Name: %
cytotoxicity at 10 µM: -7.54
--
Molecule: CCOc1cc(CN(C)CCC#N)ccc1OC(F)F
Unit Name: %
cytotoxicity at 10 µM: -5.81
--
Molecule: Cc1ccc(N2CC[C@H]3OCC[C@@]3(C(=O)N(C)C)C2)nn1
Unit Name: %
cytotoxicity at 10 µM: 1.11
--
Molecule: Cc1oncc1C(=O)NCc1cc(=O)n2c(n1)CN(CC(C)C)CCC2
Unit Name: %
cytotoxicity at 10 µM: -0.187
--
Molecule: O=C(NCc1nnc2n1CCC2)c1cn(-c2cccc(Br)c2)nn1
Unit Name: %
cytotoxicity at 10 µM: -4.3
--
Molecule: CCn1nc(C)c(CCN2CC3(CCOC3)CCC2=O)c1C (stereo unspecified)
Unit Name: %
cytotoxicity at 10 µM: -118
--
Molecule: Cc1cc(C)n(CC2CCCCN2CCCS(N)(=O)=O)n1 (stereo unspecified)
Unit Name: %
cytotoxicity at 10 µM: 6.28
--
Molecule: CC(=O)N1CCN(c2ccnc3c(F)cc(Br)cc23)CC1
Unit Name: %
cytotoxicity at 10 µM: 13.6
--
Molecule: COCCN1CC(C(=O)NCc2cccnc2-n2cccn2)CC1=O (stereo unspecified)
Unit Name: %
cytotoxicity at 10 µM: 3.74
--
Molecule: CCC(=O)N1CCC2(CC1)CC(Oc1ccccc1)CO2 (stereo unspecified)
Unit Name: %
cytotoxicity at 10 µM: 7.69
--
Molecule: CCn1ccnc1CNCC(c1ccc(C)s1)N1CCOCC1 (stereo unspecified)
Unit Name: %
cytotoxicity at 10 µM: 6.41
--
Molecule: Cc1cc(C(=O)N2C[C@@H](CN3CCCCC3)[C@@H](CO)C2)ccc1O
Unit Name: %
cytotoxicity at 10 µM: 0.251
--
Molecule: Cc1nc(C)c2c(n1)CCN(C(=O)CC1CC1)CC2
Unit Name: %
cytotoxicity at 10 µM: 2.34
--
Molecule: CC(C)c1nc(CN(C)Cc2ccc(O)c(Cl)c2)cs1
Unit Name: %
cytotoxicity at 10 µM: -7.27
--
Molecule: CC(C(=O)NCC(C)(C)c1ccc2c(c1)OCO2)n1ccnc1 (stereo unspecified)
Unit Name: %
cytotoxicity at 10 µM: 6.36
--
Molecule: Cc1cc(CN2CCN(Cc3cnc4c(c3)c(C)nn4C)CC2)on1
Unit Name: %
cytotoxicity at 10 µM: -12.6
--
Molecule: Cc1noc(C(C)C)c1C(=O)N1CCCN(Cc2cscn2)CC1
Unit Name: %
cytotoxicity at 10 µM: -3.56
--
Molecule: Cc1nn(C)c(Oc2ccc(Cl)cc2)c1CN1CCC(CN)C1 (stereo unspecified)
Unit Name: %
cytotoxicity at 10 µM: -7.52
--
Molecule: CCOc1nnc(CN2CCC(c3cc4ccccc4[nH]3)CC2)s1
Unit Name: %
cytotoxicity at 10 µM: 20.6
--
Molecule: CCc1cc(NCCS(=O)(=O)N(C)C)nc(N2CCOCC2)n1
Unit Name: %
cytotoxicity at 10 µM: 1.44
--
Molecule: CN(C)C(=O)c1n[nH]c2c1CCN(Cc1nccs1)C2
Unit Name: %
cytotoxicity at 10 µM: -139

###

# Experiment Summary: Toxicity liver stage against HepG2, at 10uM
# Type: cell-based
# Design: test concentration 10 uM, cell line HepG2-A16-CD81EGFP
# Test Conditions: human, HepG2-A16-CD81EGFP cells; read-out: INHIBITION
In this section, each of the compounds is paired with its reported cytotoxicity at 10 µM.

Compound: Cc1cccc2[nH]c(C3CCN(C(=O)c4cnc[nH]c4=O)CC3)nc12
Unit Name: %
cytotoxicity at 10 µM: 2.75

Compound: CCNc1nc2c(s1)C(=O)CN(C(=O)NCCc1ccccc1)C2
Unit Name: %
cytotoxicity at 10 µM: 3.3

Compound: CNC(=O)[C@@H]1COC[C@H]2CN(C(=O)c3ccc(OC)cc3)C[C@H]21
Unit Name: %
cytotoxicity at 10 µM: 9.48

Compound: Cc1ccc(C(C(=O)O)N(C)CCN2CCOCC2)c(F)c1 (centres undefined)
Unit Name: %
cytotoxicity at 10 µM: 4.28

Compound: COc1ccc(CNC(C)Cn2cccn2)cc1OC (centres undefined)
Unit Name: %
cytotoxicity at 10 µM: -0.966

Compound: CNCC(=O)Nc1ccc(-c2cnc(NCCS(C)(=O)=O)nc2)cc1
Unit Name: %
cytotoxicity at 10 µM: -3.08

Compound: CCOc1ccccc1CN(CC)Cc1ccc(S(C)(=O)=O)cc1
Unit Name: %
cytotoxicity at 10 µM: -4.6

Compound: CCCN1Cc2ccccc2NC(=O)C12CCNC2 (centres undefined)
Unit Name: %
cytotoxicity at 10 µM: 5.92

Compound: O=C(Cn1nc(-c2ccc(F)cc2)oc1=O)NCCc1ccccc1
Unit Name: %
cytotoxicity at 10 µM: -13.5

Compound: Cn1ccnc1CN1CCN(CC(O)c2cc(F)ccc2F)CC1 (centres undefined)
Unit Name: %
cytotoxicity at 10 µM: -13.8

Compound: CC(C)c1ccn(C2(C(=O)O)CCN(c3cc(C(N)=O)ccn3)CC2)n1
Unit Name: %
cytotoxicity at 10 µM: 1.71

Compound: CC(C)N1CCCC(CNC(=O)Cc2csc(-c3cccnc3)n2)C1 (centres undefined)
Unit Name: %
cytotoxicity at 10 µM: -51.5

Compound: Cc1cc(C)n(C2CCCN(C(=O)Cn3ccc(=O)n(C)c3=O)C2)n1 (centres undefined)
Unit Name: %
cytotoxicity at 10 µM: 0.437

Compound: CN1C(=O)C2(CCN(C(=O)c3cccnc3)CC2)c2cccc(F)c21
Unit Name: %
cytotoxicity at 10 µM: -1.06

Compound: Cc1cc(C(=O)N2CCCC3(CCCN3Cc3cccnc3)C2)[nH]n1 (centres undefined)
Unit Name: %
cytotoxicity at 10 µM: 8.07

Compound: COCC(=O)N1CCC2(CC1)CC(COC)N(c1ncccn1)C2 (centres undefined)
Unit Name: %
cytotoxicity at 10 µM: 6.85

Compound: CCC(C)NC(=O)c1coc(COc2cccc(F)c2)n1 (centres undefined)
Unit Name: %
cytotoxicity at 10 µM: -146

Compound: Cc1ccc(C(CNC(=O)c2cc(CC(C)C)nn2C)N(C)C)cc1 (centres undefined)
Unit Name: %
cytotoxicity at 10 µM: -3.34

Compound: CCN(CC)c1ccc(NS(=O)(=O)c2cnn(C)c2)cn1
Unit Name: %
cytotoxicity at 10 µM: -7.12

Compound: Cc1cccc(-n2ncc(C(=O)N3CCn4c(C)nnc4C3)c2C)c1
Unit Name: %
cytotoxicity at 10 µM: 2.14

Compound: COc1ccc(CC(C)(O)CNC(=O)Cc2cccs2)cc1 (centres undefined)
Unit Name: %
cytotoxicity at 10 µM: 14.7

Compound: CC(NCc1cnn(C)c1)c1ccc(OCc2nccn2C)cc1 (centres undefined)
Unit Name: %
cytotoxicity at 10 µM: -7.16

Compound: Cc1cc(C)n(CCN2CCOC(CNc3cccnn3)C2)n1 (centres undefined)
Unit Name: %
cytotoxicity at 10 µM: -3.2

Compound: CC(O)CN1CCC(CN(C)Cc2cc(F)cc3cccnc23)CC1 (centres undefined)
Unit Name: %
cytotoxicity at 10 µM: -1.26
